Hello, the source for this data is ChEMBL document CHEMBL4813994, in case you need it.

Property: IC50; scope: individual molecules
TARGET OF ASSAY: Phosphatidylinositol 4,5-bisphosphate 3-kinase catalytic subunit alpha isoform (Homo sapiens, UniProt P42336)
Sequence (P42336 whole entry, canonical isoform): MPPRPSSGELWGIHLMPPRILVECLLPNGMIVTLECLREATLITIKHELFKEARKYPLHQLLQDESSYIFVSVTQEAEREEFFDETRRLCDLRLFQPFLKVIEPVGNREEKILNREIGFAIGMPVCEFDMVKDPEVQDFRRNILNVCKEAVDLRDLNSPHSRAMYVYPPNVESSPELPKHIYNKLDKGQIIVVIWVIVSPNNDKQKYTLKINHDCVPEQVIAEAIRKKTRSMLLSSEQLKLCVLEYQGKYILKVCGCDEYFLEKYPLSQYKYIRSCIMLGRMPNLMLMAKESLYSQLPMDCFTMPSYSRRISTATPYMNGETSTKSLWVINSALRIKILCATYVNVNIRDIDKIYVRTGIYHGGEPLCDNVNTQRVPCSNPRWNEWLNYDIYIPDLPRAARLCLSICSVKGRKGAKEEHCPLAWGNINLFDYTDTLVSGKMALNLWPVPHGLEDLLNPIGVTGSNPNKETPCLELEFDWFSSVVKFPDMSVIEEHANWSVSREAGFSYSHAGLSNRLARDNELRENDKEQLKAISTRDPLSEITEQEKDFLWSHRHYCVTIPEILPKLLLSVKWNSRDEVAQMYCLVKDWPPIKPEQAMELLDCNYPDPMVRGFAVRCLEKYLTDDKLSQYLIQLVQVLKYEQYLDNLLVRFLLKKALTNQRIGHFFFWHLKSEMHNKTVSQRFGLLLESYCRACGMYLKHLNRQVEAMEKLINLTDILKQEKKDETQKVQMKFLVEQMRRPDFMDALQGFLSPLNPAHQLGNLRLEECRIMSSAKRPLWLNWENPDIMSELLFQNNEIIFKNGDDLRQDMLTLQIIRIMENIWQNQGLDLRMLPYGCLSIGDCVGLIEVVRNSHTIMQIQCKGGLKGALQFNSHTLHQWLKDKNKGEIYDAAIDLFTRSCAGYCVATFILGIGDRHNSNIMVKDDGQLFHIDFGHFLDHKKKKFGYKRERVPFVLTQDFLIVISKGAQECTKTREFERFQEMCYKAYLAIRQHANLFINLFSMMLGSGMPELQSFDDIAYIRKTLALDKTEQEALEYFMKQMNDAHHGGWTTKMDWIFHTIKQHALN
PROTOCOL DETAILS: Inhibition of PI3Kalpha (unknown origin) using PIP2 as substrate measured after 40 mins by ADP-glo plus luminescence assay
Dear colleague, please return just the value in µM, with no unit written.

Some solved entries appear below for comparison.
- RECORD SMILES: "Nc1ncc(-c2nc(N3CCOCC3)c3sc(CN4CCN(C(=O)c5cc(Cc6n[nH]c(=O)c7ccccc67)ccc5F)CC4)cc3n2)cn1"
  UNITS: "µM"
  VALUE MEASURED: 0.0037
- RECORD SMILES: "Cc1c(CN2CCN(C(=O)c3cc4cccc(C(N)=O)c4o3)CC2)sc2c(N3CCOCC3)nc(-c3ccc(N)cc3)nc12"
  UNITS: "µM"
  VALUE MEASURED: 0.319

Request: # IC50 lookup, item Cc1c(CN2CCN(C(=O)c3cc4cccc(C(N)=O)c4o3)CC2)sc2c(N3CCOCC3)nc(-c3cccc4[nH]ccc34)nc12
Result: 1.14
